Every entry's value here was drawn from patent US10551389B2.

measured target: Mcl-1 (Homo sapiens, UniProt Q07820)
Sequence (Q07820 whole entry, species assumed): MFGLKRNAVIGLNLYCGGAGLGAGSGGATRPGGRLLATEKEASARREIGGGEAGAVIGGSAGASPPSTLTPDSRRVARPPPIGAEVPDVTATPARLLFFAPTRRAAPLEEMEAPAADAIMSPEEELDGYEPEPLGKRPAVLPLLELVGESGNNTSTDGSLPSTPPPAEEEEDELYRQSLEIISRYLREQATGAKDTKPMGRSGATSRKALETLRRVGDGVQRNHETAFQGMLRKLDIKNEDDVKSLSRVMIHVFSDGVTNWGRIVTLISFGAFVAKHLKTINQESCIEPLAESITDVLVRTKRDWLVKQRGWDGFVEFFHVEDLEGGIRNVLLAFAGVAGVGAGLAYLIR
protocol notes: Inhibition of Mcl-1 (disruption of Mcl-1/Bim interaction)
Assay type: binding
details: compound at 25 μM
just bin them by % Inhibition (25 μM) Mcl-1: c1 (below 20%), c2 (20% to below 40%), c3 (40% or more)

compound: COc1cc2c(cc1OC)C(c1ccccc1)N(CCS(=O)(=O)NC(=O)c1ccc(CN3C(=O)C(c4ccc(F)cc4F)=C(c4ccc(F)cc4F)C3=O)cc1)CC2 (centres unmarked)
discrete label: c1

compound: Cn1cc(C(=O)C2CCCCC2)c2cc(C(=O)NS(=O)(=O)c3ccc(CN(CCSc4ccccc4)Cc4ccc5c(c4)OCO5)cc3)ccc21
discrete label: c1

compound: COc1ccc(Cc2ccc(C(=O)NS(=O)(=O)c3ccc(-c4ccc(Oc5ccccc5)cc4)cc3)cc2)c(OC)c1OC
discrete label: c3

compound: COc1ccc(Cc2ccc(C(=O)NS(=O)(=O)c3ccc(CN(CCSc4ccccc4)Cc4c(F)cccc4Cl)cc3)cc2)c(OC)c1OC
discrete label: c3

compound: Cn1cc(C(=O)c2cccs2)c2cc(C(=O)NS(=O)(=O)c3ccc(CN(CCSc4ccccc4)Cc4ccc5c(c4)OCO5)cc3)ccc21
discrete label: c3

Exercise: read the entry `NS(=O)(=O)c1ccc(CN(CCSc2ccccc2)Cc2ccc(S(=O)(=O)NC(=O)c3cccc(NCCc4ccccc4)c3)cc2)cc1` and state which class it falls under.
c2

Exercise: read the entry `COc1ccccc1-c1ccc(C(=O)NS(=O)(=O)c2ccc(-c3ccc(C(F)(F)F)cc3)cc2)cc1` and state which class it falls under.
c2
